Kindly state pIC50 for each of the entries shown.
study.system: human SARM1(50-724) (Homo sapiens, UniProt Q6SZW1)
Construct: 40 nM human SARM1(50-724)
Sequence (Q6SZW1 50-724): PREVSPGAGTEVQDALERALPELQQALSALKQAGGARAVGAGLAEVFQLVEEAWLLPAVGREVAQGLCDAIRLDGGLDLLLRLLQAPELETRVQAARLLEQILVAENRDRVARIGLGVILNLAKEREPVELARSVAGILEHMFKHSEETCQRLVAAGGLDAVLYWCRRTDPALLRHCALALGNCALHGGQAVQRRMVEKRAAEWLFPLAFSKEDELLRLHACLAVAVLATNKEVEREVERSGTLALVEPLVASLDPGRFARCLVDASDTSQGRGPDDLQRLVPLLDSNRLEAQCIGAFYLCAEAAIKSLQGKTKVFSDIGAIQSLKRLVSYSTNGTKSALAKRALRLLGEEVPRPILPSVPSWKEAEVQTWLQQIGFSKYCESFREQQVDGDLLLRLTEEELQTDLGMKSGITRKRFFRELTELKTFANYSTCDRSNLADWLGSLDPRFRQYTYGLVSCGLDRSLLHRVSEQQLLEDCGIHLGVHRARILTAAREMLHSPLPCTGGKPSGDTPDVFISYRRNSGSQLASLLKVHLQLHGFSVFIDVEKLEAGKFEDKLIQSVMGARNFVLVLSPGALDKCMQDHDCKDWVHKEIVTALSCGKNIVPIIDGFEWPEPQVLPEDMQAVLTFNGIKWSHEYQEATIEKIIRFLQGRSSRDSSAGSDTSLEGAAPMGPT
measurement.protocol: SARM1 biological assay: HPLC measurement of NAD and NAM peak areas
Format: biochemical
pIC50: −log10 of the molar value.

Look up pIC50 for the entries below, preserving their order.
1. FC1(F)CC1Cc1nc(Cc2ccncc2)co1 (stereo not shown) [Example 20B]
2. C[C@]1(c2nc(Cc3ccncc3)c[nH]2)CC1(F)F (single isomer, unassigned) [Example 10A]
3. FC1(F)CCN(c2nc(Cc3ccncc3)c[nH]2)CC1 [Example 1]
4. ClC1CC(c2nc(Cc3ccncc3)c[nH]2)C1 (stereo not shown) [Example 34]
5. FC1(F)CC(c2nc(Cc3ccncc3)co2)C1 [Example 15B]
6. C[C@@]1(c2nc(Cc3ccncc3)c[nH]2)CC1(F)F (single isomer, unassigned) [Example 10B]
7. FC(F)(F)C1(c2nc(Cc3ccncc3)c[nH]2)CC1 [Example 16]
8. FC1(F)CN(Cc2nc(Cc3ccncc3)c[nH]2)C1 [Example 7]

Reply:
1: 4.00 to 5.00; 2: > 6.00; 3: 5.00 to 6.00; 4: > 6.00; 5: 4.00 to 5.00; 6: > 6.00; 7: 5.00 to 6.00; 8: 5.00 to 6.00

Look up pIC50 for the entries below, preserving their order.
1. FC(F)(F)O[C@H]1C[C@H](c2nc(Cc3ccncc3)c[nH]2)C1 [Example 37B]
2. Fc1cnccc1Cc1c[nH]c(C2CC2(F)F)n1 (stereo not shown) [Example 14]

Reply:
5.00 to 6.00
> 6.00

###

study.system: human SARM1(50-724) (Homo sapiens)
Construct: 40 nM human SARM1(50-724)
measurement.protocol: SARM1 biological assay: HPLC measurement of NAD and NAM peak areas
Assay type: biochemical
study.conditions: 40 nM human SARM1(50-724), 0.3 mM NMN, 20 μM NAD, 60 min at room temperature; dose-response 1:3 serial dilution from 100 μM; read-out: Average IC50
attribute.measured: IC50

N#C[C@H]1C[C@@H](c2nc(Cc3ccncc3)c[nH]2)C1 [Example 35A]    1 to 10 µM

Please turn your attention to the following entry.
IC50 measured on N#CC1(F)CC(c2nc(Cc3ccncc3)c[nH]2)C1 (centres unmarked) [Example 38A] = 1 to 10 µM

###

study.system: human SARM1(50-724) (Homo sapiens)
Construct: 40 nM human SARM1(50-724)
measurement.protocol: SARM1 biological assay: HPLC measurement of NAD and NAM peak areas
Type: biochemical
study.conditions: read-out: Average IC50; 40 nM human SARM1(50-724), 0.3 mM NMN, 20 μM NAD, 60 min at room temperature; dose-response 1:3 serial dilution from 100 μM
attribute.measured: IC50

Measured on human SARM1(50-724) (Homo sapiens), FC1(F)CC1c1nc(Cc2ccncc2)c[nH]1 (single isomer, unassigned) has a documented IC50 of < 1000 nM

###

study.system: human SARM1(50-724) (Homo sapiens, UniProt Q6SZW1)
Construct: 40 nM human SARM1(50-724)
measurement.protocol: SARM1 biological assay: HPLC measurement of NAD and NAM peak areas
Format: biochemical
pIC50: −log10 of the molar value. Structures can show the parent of a compound that is named as a salt.
attribute.measured: pIC50

Sample records with pIC50:
N#CC1CC(c2nc(Cc3ccncc3)c[nH]2)C1 (stereo not shown) [Example 35B]    > 6.00
Fc1cnccc1Cc1coc(C2CCC(F)(F)CC2)n1 [Example 17B]    4.00 to 5.00
F[C@]1(Cl)C[C@@H]1c1nc(Cc2ccncc2)c[nH]1 (single isomer, unassigned) [Example 39B]    > 6.00
FC1(F)CNC(c2nc(Cc3ccncc3)c[nH]2)C1 (stereo not shown) [Example 32]    5.00 to 6.00
ClC1(Cl)CC1c1nc(Cc2ccncc2)c[nH]1 (stereo not shown) [Example 6]    > 6.00

Look up pIC50 for the entries below, preserving their order.
1. Fc1cnccc1Cc1c[nH]c(C2CC(F)(F)C2)n1 [Example 4]
2. FC1(F)C[C@@H]1Cc1nc(Cc2ccncc2)c[nH]1 (single isomer, unassigned) [Example 21A]
3. FC(F)(F)C1(Cc2nc(Cc3ccncc3)c[nH]2)CC1 [Example 25]
4. FC1(F)CN(c2nc(Cc3ccncc3)c[nH]2)C1 [Example 2]
5. FC1(F)CCN(c2nc(Cc3ccncc3)c[nH]2)C1 [Example 3]

Reply:
1. > 6.00
2. > 6.00
3. > 6.00
4. 5.00 to 6.00
5. 5.00 to 6.00

Look up pIC50 for the entries below, preserving their order.
1. FC(F)(F)Sc1ncc(Cc2ccncc2)[nH]1 [Example 28]
2. FC(F)(F)O[C@H]1C[C@@H](c2nc(Cc3ccncc3)c[nH]2)C1 [Example 37A]

Reply:
1: > 6.00; 2: > 6.00

Look up pIC50 for the entries below, preserving their order.
1. FC1(F)CC(Cc2nc(Cc3ccncc3)c[nH]2)C1 [Example 24]
2. Fc1cnccc1Cc1c[nH]c(C2CCC(F)(F)CC2)n1 [Example 17A]
3. C[C@H](c1ccncc1)c1c[nH]c(C(=O)C(F)(F)F)n1 (single isomer, unassigned) [Example 23A, hydrochloride]
4. FC1(F)CC[C@@H](c2nc(Cc3ccncc3)c[nH]2)C1 (single isomer, unassigned) [Example 11B]

Reply:
5.00 to 6.00
5.00 to 6.00
> 6.00
5.00 to 6.00

Look up pIC50 for the entries below, preserving their order.
1. C[C@@H](c1ccncc1)c1c[nH]c(C(=O)C(F)(F)F)n1 (single isomer, unassigned) [Example 23B, hydrochloride]
2. FC(F)(F)C1CC1c1nc(Cc2ccncc2)c[nH]1 (stereo not shown) [Example 26]
3. ClC1(Cl)CC(c2nc(Cc3ccncc3)c[nH]2)C1 [Example 19A]

Reply:
1. 5.00 to 6.00
2. 5.00 to 6.00
3. > 6.00

// provenance: patent US20260285834A1
